molecular target: glucocorticoid receptor (Homo sapiens, UniProt P04150)
Sequence (P04150 whole entry): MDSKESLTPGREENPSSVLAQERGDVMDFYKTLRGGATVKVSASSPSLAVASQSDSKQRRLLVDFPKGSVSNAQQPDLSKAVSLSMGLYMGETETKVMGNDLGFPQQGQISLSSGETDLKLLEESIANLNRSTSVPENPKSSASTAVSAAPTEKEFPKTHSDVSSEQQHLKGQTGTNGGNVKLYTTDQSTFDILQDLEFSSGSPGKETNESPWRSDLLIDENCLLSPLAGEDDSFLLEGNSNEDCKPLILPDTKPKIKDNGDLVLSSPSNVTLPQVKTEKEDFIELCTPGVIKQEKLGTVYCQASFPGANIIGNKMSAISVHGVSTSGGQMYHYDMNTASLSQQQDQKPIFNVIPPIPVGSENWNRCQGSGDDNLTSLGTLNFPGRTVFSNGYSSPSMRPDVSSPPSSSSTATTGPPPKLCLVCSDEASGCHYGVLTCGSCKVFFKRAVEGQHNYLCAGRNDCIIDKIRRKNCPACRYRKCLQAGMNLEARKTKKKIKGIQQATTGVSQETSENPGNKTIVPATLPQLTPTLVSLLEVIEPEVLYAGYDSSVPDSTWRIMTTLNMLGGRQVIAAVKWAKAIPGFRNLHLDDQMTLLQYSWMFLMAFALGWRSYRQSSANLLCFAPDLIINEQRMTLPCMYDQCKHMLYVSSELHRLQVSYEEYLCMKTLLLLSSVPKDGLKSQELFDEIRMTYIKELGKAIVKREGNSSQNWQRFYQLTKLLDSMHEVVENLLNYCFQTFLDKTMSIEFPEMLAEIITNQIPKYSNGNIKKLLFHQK
metric: Ki

compound	measurement.target	val
C/C(=C1/c2ccc(C)cc2CCc2cc(F)ccc21)c1cccc(NS(C)(=O)=O)c1 [Example 832]	glucocorticoid receptor (Homo sapiens, UniProt P04150)	< 500 nM
Cc1cccc(C=C2c3ccccc3CCc3cc(Cl)ccc32)c1 [Example 177]	glucocorticoid receptor (Homo sapiens, UniProt P04150)	< 1000 nM
CS(=O)(=O)Nc1cccc(/C=C2/c3ccccc3CCc3cc(S(C)(=O)=O)ccc32)c1 [Example 393]	glucocorticoid receptor (Homo sapiens, UniProt P04150)	< 500 nM
Cc1cccc2c1CCc1ccccc1/C2=C\c1cccc(NS(C)(=O)=O)c1 [Example 312]	glucocorticoid receptor (Homo sapiens, UniProt P04150)	< 500 nM
COc1cccc(C=C2c3ccccc3CCc3ccccc32)c1 [Example 32]	glucocorticoid receptor (Homo sapiens, UniProt P04150)	< 1000 nM
O=S(=O)(Nc1cccc(/C=C2\c3ccccc3CSc3ccccc32)c1)c1ccc(Cl)c(Cl)c1 [Example 690]	glucocorticoid receptor (Homo sapiens, UniProt P04150)	< 1000 nM
CS(=O)(=O)Nc1cccc(C=C2c3ccccc3CCc3cc(Cl)ccc32)c1 [206(b)]	glucocorticoid receptor (Homo sapiens, UniProt P04150)	< 500 nM
Cn1cnc(S(=O)(=O)Nc2ccc(C=C3c4ccccc4CCc4ccccc43)cc2)c1 [Example 143]	glucocorticoid receptor (Homo sapiens, UniProt P04150)	< 10000 nM
CS(=O)(=O)Nc1cccc(/C=C2/c3ccccc3CCc3cc(C(=O)O)ccc32)c1 [Example 418]	glucocorticoid receptor (Homo sapiens, UniProt P04150)	< 1000 nM
COc1ccc2c(c1)CCc1ccccc1C2=Cc1cccc(NS(C)(=O)=O)c1 [Example 161]	glucocorticoid receptor (Homo sapiens, UniProt P04150)	< 500 nM
Cc1cccc2c1CCc1ccccc1/C2=C/c1cccc(NS(C)(=O)=O)c1 [Example 311]	glucocorticoid receptor (Homo sapiens, UniProt P04150)	< 500 nM
Nc1cccc(C=C2c3ccccc3CCc3ccsc32)c1 [Example 498]	glucocorticoid receptor (Homo sapiens, UniProt P04150)	< 1000 nM
CC(C)S(=O)(=O)Nc1cccc(C=C2c3ccccc3CCc3ccccc32)c1 [Example 92]	glucocorticoid receptor (Homo sapiens, UniProt P04150)	< 500 nM
CS(=O)(=O)Nc1cccc(/C=C2\c3ccccc3CCc3ncsc32)c1 [Example 556]	glucocorticoid receptor (Homo sapiens, UniProt P04150)	< 500 nM
O=c1[nH]c2ccc(C=C3c4ccc(F)cc4CCc4cc(F)ccc43)cc2[nH]1 [Example 437]	glucocorticoid receptor (Homo sapiens, UniProt P04150)	< 1000 nM
Cn1cnc(S(=O)(=O)Nc2cccc(C=C3c4ccccc4CCc4cc(Cl)ccc43)c2)c1 [Example 296]	glucocorticoid receptor (Homo sapiens, UniProt P04150)	< 10000 nM
CS(=O)(=O)Nc1cccc(/C(F)=C2\c3ccccc3COc3ccccc32)c1 [Example 806]	glucocorticoid receptor (Homo sapiens, UniProt P04150)	< 500 nM
C/C(=C1\c2ccccc2COc2cc(OCC3CC3)ccc21)c1cccc(NS(C)(=O)=O)c1 [Example 813]	glucocorticoid receptor (Homo sapiens, UniProt P04150)	< 500 nM
